# Study System: Renal Dipeptidase (RDP) (Homo sapiens)
# Construct: from tissue; host or cells: small intestine lysate
# Experiment Notes: RDP inhibition assay (IC50), small intestine lysate, fluorogenic substrate ε-DNP-L-Lys-D-Amp
# Format: biochemical
# Details: Table 1
# Sequence (P16444 17-385, species assumed): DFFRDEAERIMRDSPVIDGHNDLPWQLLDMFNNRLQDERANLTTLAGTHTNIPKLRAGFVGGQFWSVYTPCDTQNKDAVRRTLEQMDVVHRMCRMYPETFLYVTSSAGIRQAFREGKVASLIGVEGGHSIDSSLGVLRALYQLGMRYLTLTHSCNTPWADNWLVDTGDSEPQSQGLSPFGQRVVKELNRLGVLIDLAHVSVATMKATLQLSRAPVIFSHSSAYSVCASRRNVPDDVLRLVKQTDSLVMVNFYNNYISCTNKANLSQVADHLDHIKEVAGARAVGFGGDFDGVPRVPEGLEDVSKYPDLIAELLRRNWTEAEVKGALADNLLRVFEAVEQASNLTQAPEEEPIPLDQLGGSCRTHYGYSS
Quick reference: pIC50 of the listed items.
// pIC50 is dimensionless: -log10 of concentration (M)

Reference set, count: 3
NC(CC1CCCCC1)P(=O)(O)C/C(=C/c1ccccc1)C(=O)O (stereo not shown) ... 7.40
NC(CC1CCCCC1)P(=O)(O)CC(=Cc1ccc(I)cc1)C(=O)O (mixture of isomers) [compound 14] ... 7.35
NC(CC1CCCCC1)P(=O)(O)C/C(=C\c1ccc(F)cc1)C(=O)O (stereo not shown) ... 8.30

Task: Item NC(CC1CCCCC1)P(=O)(O)C/C(=C/c1ccc(I)cc1)C(=O)O (stereo not shown) with Renal Dipeptidase (RDP) (Homo sapiens) - pIC50?
Result: 7.60

Task: Item NC(CC1CCCCC1)P(=O)(O)C/C(=C\c1ccc(I)cc1)C(=O)O (stereo not shown) with Renal Dipeptidase (RDP) (Homo sapiens) - pIC50?
Result: 8.10

Task: Item NC(CC1CCCCC1)P(=O)(O)C/C(=C/c1ccc(F)cc1)C(=O)O (stereo not shown) with Renal Dipeptidase (RDP) (Homo sapiens) - pIC50?
Result: 7.82

Task: Item NC(CC1CCCCC1)P(=O)(O)C/C(=C\c1ccc(Br)cc1)C(=O)O (stereo not shown) with Renal Dipeptidase (RDP) (Homo sapiens) - pIC50?
Result: 8.22

Task: Item NC(CC1CCCCC1)P(=O)(O)C/C(=C/c1ccc(Br)cc1)C(=O)O (stereo not shown) with Renal Dipeptidase (RDP) (Homo sapiens) - pIC50?
Result: 7.52

Task: Item NC(CC1CCCCC1)P(=O)(O)CC(=Cc1ccc(I)cc1)C(=O)O (mixture of isomers) [compound 15] with Renal Dipeptidase (RDP) (Homo sapiens) - pIC50?
Result: 6.60

Task: Item NC(CC1CCCCC1)P(=O)(O)C/C(=C\c1ccccc1)C(=O)O (stereo not shown) with Renal Dipeptidase (RDP) (Homo sapiens) - pIC50?
Result: 7.55

---

# Study System: Renal Dipeptidase (RDP) (Homo sapiens, UniProt P16444)
# Details: human colon cancer lysate; numbering of Table 3
# Sequence (P16444 17-385): as the sequence (P16444 17-385, species assumed) above
Reported Metric: RDP inhibitor potency in words

NC(CC1CCCCC1)P(=O)(O)C/C(=C\c1ccc(I)cc1)C(=O)O (stereo not shown) ... potent RDP inhibitors
NC(CC1CCCCC1)P(=O)(O)C/C(=C\c1ccc(F)cc1)C(=O)O (stereo not shown) ... potent RDP inhibitors
NC(CC1CCCCC1)P(=O)(O)C/C(=C\c1ccc(Br)cc1)C(=O)O (stereo not shown) ... potent RDP inhibitors

---

# Study System: Renal Dipeptidase (RDP) (Homo sapiens, UniProt P16444)
# Construct: from tissue; host or cells: small intestine lysate
# Experiment Notes: RDP inhibition assay (IC50), small intestine lysate, fluorogenic substrate ε-DNP-L-Lys-D-Amp
# Assay type: biochemical
# Details: Table 2
Quick reference: IC50 of the listed items.
Note: unit nM is implicit; provide only the numeric part.

Task: Record request: IC50 value, item CCN(CC)c1ccc(/C=C(/CP(=O)(O)C(N)CC2CCCCC2)C(=O)O)cc1 (stereo not shown) [compound 27]
Result: 150

Task: Record request: IC50 value, item NC(CC1CCCCC1)P(=O)(O)C/C(=C\c1ccc(C(F)(F)F)cc1)C(=O)O (stereo not shown) [compound 18]
Result: 10

Task: Record request: IC50 value, item CCN(CC)c1ccc(/C=C(\CP(=O)(O)C(N)CC2CCCCC2)C(=O)O)cc1 (stereo not shown) [compound 26]
Result: 70

Task: Record request: IC50 value, item NC(CC1CCCCC1)P(=O)(O)C/C(=C/c1ccc(C(F)(F)F)cc1)C(=O)O (stereo not shown) [compound 19]
Result: 200

---

Quick reference: Ki of the listed items.
# Study System: Renal Dipeptidase (RDP) (Homo sapiens, UniProt P16444)
# Details: read-out: RDP inhibition Ki; colon cancer lysate; Table 1
Note: unit nM is implicit; provide only the numeric part.

Task: Record request: Ki value, item NC(CC1CCCCC1)P(=O)(O)CC(=Cc1ccc(I)cc1)C(=O)O (mixture of isomers) [compound 15]
Result: 10

Task: Record request: Ki value, item NC(CC1CCCCC1)P(=O)(O)C/C(=C/c1ccccc1)C(=O)O (stereo not shown) [compound 7]
Result: 1.6

Task: Record request: Ki value, item NC(CC1CCCCC1)P(=O)(O)CC(=Cc1ccc(I)cc1)C(=O)O (mixture of isomers) [compound 14]
Result: 3

Task: Record request: Ki value, item NC(CC1CCCCC1)P(=O)(O)C/C(=C\c1ccc(Br)cc1)C(=O)O (stereo not shown) [compound 10]
Result: 0.72

---

Quick reference: log10(IC50) of the listed items.
# Study System: UniProtKB P16444
# Details: read-out: RDP inhibition activity IC50; colon cancer lysate; Table 3
Answers are given as log10 of IC50 in nM.

Reference set, count: 4
NC(CC1CCCCC1)P(=O)(O)CC(=Cc1ccc(I)cc1)C(=O)O (mixture of isomers) ... 1.65
NC(CC1CCCCC1)P(=O)(O)C/C(=C/c1ccc(Br)cc1)C(=O)O (stereo not shown) ... 1.40
NC(CC1CCCCC1)P(=O)(O)C/C(=C\c1ccc(Br)cc1)C(=O)O (stereo not shown) ... 0.90
NC(CC1CCCCC1)P(=O)(O)C/C(=C\c1ccc(F)cc1)C(=O)O (stereo not shown) ... 0.74

Task: Record request: log10(IC50) value, item NC(CC1CCCCC1)P(=O)(O)C/C(=C/c1ccc(F)cc1)C(=O)O (stereo not shown)
Result: 2.48

Task: Record request: log10(IC50) value, item NC(CC1CCCCC1)P(=O)(O)C/C(=C\c1ccc(I)cc1)C(=O)O (stereo not shown)
Result: 0.54

Task: Record request: log10(IC50) value, item NC(CC1CCCCC1)P(=O)(O)C/C(=C/c1ccc(I)cc1)C(=O)O (stereo not shown)
Result: 1.78

---

# Study System: Renal Dipeptidase (RDP) (Homo sapiens)
# Details: read-out: RDP inhibition Ki; colon cancer lysate; Table 1
Quick reference: pKi of the listed items.
// pKi is dimensionless: -log10 of concentration (M)

NC(CC1CCCCC1)P(=O)(O)C/C(=C/c1ccc(I)cc1)C(=O)O (stereo not drawn) ... 8.70
NC(CC1CCCCC1)P(=O)(O)C/C(=C\c1ccccc1)C(=O)O (stereo not drawn) ... 8.95
NC(CC1CCCCC1)P(=O)(O)C/C(=C/c1ccc(Br)cc1)C(=O)O (stereo not drawn) ... 8.62
NC(CC1CCCCC1)P(=O)(O)C/C(=C/c1ccc(F)cc1)C(=O)O (stereo not drawn) ... 9.14
NC(CC1CCCCC1)P(=O)(O)C/C(=C\c1ccc(I)cc1)C(=O)O (stereo not drawn) ... 9.22

Field: next compound
Task: Record request: pKi value, item NC(CC1CCCCC1)P(=O)(O)C/C(=C\c1ccc(F)cc1)C(=O)O (stereo not drawn)
Result: 9.22
